tested on: DU-4475; assay: normalised viability (% of control), CellTiter-Blue; higher = more viable cells (about 100 = DMSO control); settings: incubation time: 72 h
So basically, if normalised viability comes in under 70% it's t, and if it's 70% or more it's f.

compound="COc1cc(F)c(F)c(Nc2ccc(I)cc2F)c1NS(=O)(=O)C1(C[C@H](O)CO)CC1 [RDEA119] (300 nM)" qualitative_label=t
compound="CC(C)(C)c1cnc(CSc2cnc(NC(=O)C3CCNCC3)s2)o1 [SNS-032] (300 nM)" qualitative_label=t
compound="CC1=C2C[C@H]3[C@@H](CC=C4C[C@@H](O)CC[C@@]43C)[C@@H]2CC[C@]12O[C@@H]1C[C@H](C)CN[C@H]1[C@H]2C [Cyclopamine] (300 nM)" qualitative_label=f
compound="Cc1sc2c(c1C)C(c1ccc(Cl)cc1)=N[C@@H](CC(=O)OC(C)(C)C)c1nnc(C)n1-2 [(+)JQ1] (300 nM)" qualitative_label=t

====

tested on: CAL-148; assay: normalised response (% of control), CellTiter-Glo; higher = more viable cells (100 = DMSO, 0 = benzethonium chloride kill control); settings: incubation time: 72 h
Output schema: class label derived from normalised response. Mapping: zone 1 (below 80%), zone 2 (80% to below 90%), zone 3 (90% or more)

compound="Cn1cc(C2=Nc3cc(NC(=O)C(N)C4CCCCC4)cc4c3C2=CNNC4=O)cn1 (centres undefined) (100 nM)" qualitative_label="zone 2"
compound="Nc1ncn([C@@H]2O[C@H](CO)[C@@H](O)[C@H]2O)c(=O)n1 [Azacitidine] (100 nM)" qualitative_label="zone 3"
compound="CC(=O)O[C@@]12CO[C@@H]1C[C@H](O)[C@@]1(C)C(=O)[C@H](O)C3=C(C)[C@@H](OC(=O)[C@H](O)[C@@H](NC(=O)OC(C)(C)C)c4ccccc4)C[C@@](O)([C@@H](OC(=O)c4ccccc4)[C@H]21)C3(C)C [Docetaxel] (10 nM)" qualitative_label="zone 1"
compound="Cn1cnc2c(F)c(Nc3ccc(Br)cc3Cl)c(C(=O)NOCCO)cc21 [Selumetinib] (100 nM)" qualitative_label="zone 3"
compound="Cc1sc2c(c1C)C(c1ccc(Cl)cc1)=N[C@@H](CC(=O)OC(C)(C)C)c1nnc(C)n1-2 [(+)JQ1] (100 nM)" qualitative_label="zone 3"
compound="CC(C)(C)c1cnc(CSc2cnc(NC(=O)C3CCNCC3)s2)o1 [SNS-032] (100 nM)" qualitative_label="zone 1"

====

test system: CAL-120; test: normalised viability (% of control), CellTiter-Blue; higher = more viable cells (about 100 = DMSO control); conditions: 1000 nM; incubation time: 72 h
Below is a list of entries, each paired with its recorded normalised viability value.
quantity-measured: normalised viability

compound=Oc1ncnc2[nH]ncc12 quantity_measured="normalised viability" result_value=109%
compound=CC1=C2C[C@H]3[C@@H](CC=C4C[C@@H](O)CC[C@@]43C)[C@@H]2CC[C@]12O[C@@H]1C[C@H](C)CN[C@H]1[C@H]2C quantity_measured="normalised viability" result_value=98.4%
compound=Nc1ncn([C@@H]2O[C@H](CO)[C@@H](O)[C@H]2O)c(=O)n1 quantity_measured="normalised viability" result_value=88.9%
compound=Cn1cnc2c(F)c(Nc3ccc(Br)cc3Cl)c(C(=O)NOCCO)cc21 quantity_measured="normalised viability" result_value=78.6%
compound="Cc1sc2c(c1C)C(c1ccc(Cl)cc1)=N[C@@H](CC(=O)OC(C)(C)C)c1nnc(C)n1-2 [(+)JQ1]" quantity_measured="normalised viability" result_value=47.7%
compound=O=P(O)(O)C(O)(Cn1ccnc1)P(=O)(O)O quantity_measured="normalised viability" result_value=98%
compound="Cn1cc(C2=Nc3cc(NC(=O)C(N)C4CCCCC4)cc4c3C2=CNNC4=O)cn1 (centres undefined)" quantity_measured="normalised viability" result_value=57.2%
compound=COc1cc(F)c(F)c(Nc2ccc(I)cc2F)c1NS(=O)(=O)C1(C[C@H](O)CO)CC1 quantity_measured="normalised viability" result_value=64.5%
compound=O=NN(CCCl)C(=O)NCCCl quantity_measured="normalised viability" result_value=83%
